Target: AMP-activated protein kinase, AMPK (Homo sapiens) (UniProt P54646+O43741+P54619+Q9UGJ0+Q9Y478+Q13131+Q9UGI9)
Test: AMP-dependent Kinase enzyme assay. An in vitro enzyme assay that detects ADP turnover that is directly proportional to AMPK activity. This uses naive AMPK that is activated during the assay with MK-8722
Type: functional
Parameters: scale not given: direction of the effect not stated beside the values
Conditions: 30 µM
outcome.measure: Percent Effect (%)
Give just the numeric value; % need not be written.

Inquiry: Which Percent Effect value is on record for O=C(c1ccc[nH]1)N1CCn2cc(Cn3cncn3)nc2C1 ?
Reply text: 2.39

Inquiry: Another compound: CC(O)CN1CCN(C(=O)c2ccc(N(C)C)nc2)CC1 (configuration not stated)
Reply text: -9.23

Inquiry: Try CS(=O)(=O)N1CCCCCC1C1CCN(c2ncccn2)CC1 (configuration not stated) next.
Reply text: 2.07
